- targetOrSystem: T1, APBA1_2, Q02410
- T1 sequence (Q02410 742-832, limits assumed, looked up): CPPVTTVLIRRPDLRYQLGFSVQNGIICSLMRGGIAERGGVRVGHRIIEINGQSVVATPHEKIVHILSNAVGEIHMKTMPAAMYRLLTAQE
- test: holdup assay
- Parameters: key: below the threshold = too weak to quantify, mostly under pKd 3.1 to 4
- condition: plain residues with an end cap or a label only (N-terminal biotin on a linker: ado-ado)
Documented pKd across a set of binders
endpoint: pKd

>>> measuredresult("ARGPPRESEV [FAM110D, Q8TAY7]")
3.69
>>> measuredresult("NVYGIESVKI [GRIA2, P42262]")
3.68
>>> measuredresult("ARSAAASNYV [CLDN4, O14493]")
3.83
>>> measuredresult("PTPDLPQTRV [KLHDC7A, Q5VTJ3]")
3.54
>>> measuredresult("TRKRSGEAAV [PFKM, P08237]")
3.9
>>> measuredresult("KPGKGSETVV [FZD4, Q9ULV1]")
3.64
>>> measuredresult("KRPEMTSSSV [MUC3A, MUC3B, Q02505;Q9H195]")
1.83
>>> measuredresult("NTANRRTTPV [CACNG2, Q9Y698]")
3.76
>>> measuredresult("PSVGSKKTVL [REELD1, A0A1B0GV85]")
3.56
>>> measuredresult("STKRKLASAV [NCF1, P14598]")
3.88
>>> measuredresult("TGLWKHETTV [ADGRA3, Q8IWK6]")
3.59
>>> measuredresult("ARESQKVSHV [FAM110B, Q8TC76]")
4.41
>>> measuredresult("KSRVAFFEEL [NF2, P35240]")
3.75
>>> measuredresult("QRPYRRGSEI [KCNJ18, B7U540]")
3.53
>>> measuredresult("SLNANEVEWF [RNF130, Q86XS8]")
3.79
>>> measuredresult("KKMLQRRTLL [OR8G1, Q15617]")
3.52
